- run.description: Plasma protein binding by ultrafiltration;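 also: fu expressed in percent not as a fraction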
- Assay type: in vitro ADME, Sprague-Dawley rats
- condition.set: Sprague-Dawley; rat plasma, C118P 400 ng/mL; read-out: fu (fraction unbound)
test.readout: fraction unbound at 1 h, 400 ng/mL

1) COc1cc(OC)cc(-c2nc[nH]c2-c2ccc(OC)c(OP(=O)([O-])[O-])c2)c1.[Na+].[Na+] [C118P]: 0.032

* * *

- run.description: PK in dogs after i.v. C118P
- Assay type: in vivo, beagle dogs
- condition.set: both sexes, beagle, dog, iv; dogs, plasma, i.v. C118P 3 mg/kg, n = 6
test.readout: half-life (h)

1. COc1cc(OC)cc(-c2nc[nH]c2-c2ccc(OC)c(O)c2)c1: 1.05
